Origin of values: patent US20200277374A1

Below, each entry is listed alongside its reported Percent RBC Binding to Siglec-7.
# target-or-system: T1, Siglec-7-Fc (plate immobilized) (human, UniProt Q9Y286 19-357, limits assumed)
# T1 construct: also called Siglec-7-Fc protein; immobilized Siglec-7; not shown: Fc part
# T1 sequence (Q9Y286 19-357 limits assumed): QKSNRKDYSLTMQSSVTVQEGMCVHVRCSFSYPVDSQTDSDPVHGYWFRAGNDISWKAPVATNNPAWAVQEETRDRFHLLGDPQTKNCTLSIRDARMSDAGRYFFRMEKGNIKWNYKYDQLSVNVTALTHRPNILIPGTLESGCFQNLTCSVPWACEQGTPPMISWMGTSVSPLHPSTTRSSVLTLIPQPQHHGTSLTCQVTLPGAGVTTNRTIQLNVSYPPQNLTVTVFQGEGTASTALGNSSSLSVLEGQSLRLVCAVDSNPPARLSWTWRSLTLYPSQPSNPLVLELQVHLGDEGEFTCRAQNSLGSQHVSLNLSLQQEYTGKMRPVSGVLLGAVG
# test-name: RBC solid adhesion assay, plate-coated Siglec-7-Fc, antibody 0.5 or 1.0 ug/ml; % of RBC binding without antibody

Worked set:
binder="anti-Siglec-7 antibody 10B5 (antibody, V domains shown, that light chain holds several Z and differs in its CDRs from S7-10B5.1 / 10B5L1; also called S7-10B5; mAb S7-10B5) VH: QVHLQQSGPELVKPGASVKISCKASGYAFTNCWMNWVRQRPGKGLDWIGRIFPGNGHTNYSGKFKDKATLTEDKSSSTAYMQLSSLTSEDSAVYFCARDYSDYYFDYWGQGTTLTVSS VL: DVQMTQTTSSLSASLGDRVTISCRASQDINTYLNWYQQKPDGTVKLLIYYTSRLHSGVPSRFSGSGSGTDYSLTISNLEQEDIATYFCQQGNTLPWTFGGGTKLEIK" reported_measurement=88.4%
binder="anti-Siglec-7 antibody 7F12 (antibody, V domains shown, Variable domains assembled from FR and CDR entries) VH: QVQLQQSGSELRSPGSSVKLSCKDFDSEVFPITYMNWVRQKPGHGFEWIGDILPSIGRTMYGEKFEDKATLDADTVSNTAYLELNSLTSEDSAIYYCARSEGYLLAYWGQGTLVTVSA VL: DVLMTQTPLSLPVSLGDQASISCRSSQSLVHSTGNTYLHWYLQKPGQSPKLLIYKVSNRFSGVPDRFSGSGAGTDFTLKISRVEAEDLGVYFCSQNTHVPYTFGGGTKLEIK" reported_measurement=7.9%

Now, please, on to the next binder.
Percent RBC Binding to Siglec-7 in this record for anti-Siglec-7 antibody 4A1 (antibody, V domains shown, Variable domains assembled from FR and CDR entries) VH: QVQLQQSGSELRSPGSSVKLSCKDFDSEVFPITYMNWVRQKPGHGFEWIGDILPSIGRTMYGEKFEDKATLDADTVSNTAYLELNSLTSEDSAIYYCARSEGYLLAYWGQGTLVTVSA VL: DVVMTQTPLSLPVSLGDQASISCRSSQSLVHSTGNIYLHWYLQKPGQSPKLLIYKVSNRFZGVPDRFSGSGSGTDFTLKISRVEAEDLGVYFCSQNTHVPYTFGGGTKLEIK : 11.2%
